Please provide measured IC50, Mast cell IL-6 production for the entries that follow.
SUBJECT_OF_TEST: T1, Human IL-33 (Axxora/Adipogen AG-40B-0038) (human, UniProt O95760 112-270, limits assumed)
T1 sequence (looked up): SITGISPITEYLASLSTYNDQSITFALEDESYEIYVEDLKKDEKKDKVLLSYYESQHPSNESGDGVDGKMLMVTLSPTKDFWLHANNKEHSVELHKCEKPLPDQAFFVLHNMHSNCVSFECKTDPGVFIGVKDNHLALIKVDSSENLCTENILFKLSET
PROTOCOL_SUMMARY: cell-based or functional assay
Numbers only, in nM.

# count of solved cases: 2
IL330388_fgl IgG1 (antibody, V domains shown) VH: EVQLLESGGGLVQPGGSLRLSCAASGFTFSSYAMSWVRQAPGKGLEWVSASTPWQGSTYYADSVKGRFTISRDNSKNTLYLQMNSLRAEDTAVYYCVRWYWGWIDSWGRGTLVTVSS VL: SYELMQPPSVSVSPGQTARITCSGDALPKQYAHWYQQKPGQAPVLVIYKDTERPSGIPERFSGSSSGTTVTLTISGVQAEDEADYYCMSSDPSGASRVFGGGTKLTVL :: 1.2
IL330377_fgl IgG1 (antibody, V domains shown) VH: EVQLLESGGGLVQPGGSLRLSCAASGFTFSSYAMSWVRQAPGKGLEWVSASDMLYGSTYYADSVKGRFTISRDNSKNTLYLQMNSLRAEDTAVYYCSQNILGYFDSWGRGTLVTVSS VL: SYELMQPPSVSVSPGQTARITCSGDALPKQYAHWYQQKPGQAPVLVIYKDTERPSGIPERFSGSSSGTTVTLTISGVQAEDEADYYCQSADSTGYHRVFGGGTKLTVL :: 1.3

For record H338L293 IgG1 (as in Table 13) (antibody, V domains shown, IgG1) VH: EVQLLESGGGLVQPGGSLRLSCAASGFTFSSYAMSWVRQAPGKGLEWVSAISPREGWQYYADSVKGRFTISRDNSKNTLYLQMNSLRAEDTAVYYCVRVVAGYFDSWGRGTLVTVSS VL: SYVLTQPPSVSVSPGQTARITCSGDALPKQYAHWYQQKPGQAPALVIYKDTERPSGIPERFSGSSSGTTVTLTISGVQAEDEADYYCMSSDPSGASRVFGGGTKVTVL the listed IC50, Mast cell IL-6 production is 1.7
